Test system: YSK1
Construct: gene STK25
Details: concentration: 1 μM, replicates: in singlicate; n = 1;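 note: KINOMEscan kinase panel screen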
Please respond with reported %Inh for every item in the list.
Give bare numbers, in %.

// below: answered compounds
compound: Cl.O=S(=O)(c1cccc(F)c1)c1ccc(Nc2ncnc3cc(Br)sc23)cc1Cl
target: YSK1
endpointName: %Inh
testValue: 30
//
compound: Cl.c1ccc(Cn2ccc3cc(Nc4ncnc5ccccc45)ccc32)cc1
target: YSK1
endpointName: %Inh
testValue: 7
//
compound: CC(C)(C)c1ccc(-n2cnc3c(N)ncnc32)cc1
target: YSK1
endpointName: %Inh
testValue: 0
//
compound: CC(C)(C)OC(=O)NC1CCCN(c2cc(-c3ccc4c(N)n[nH]c4c3)nc(N)n2)C1 (centres unmarked)
target: YSK1
endpointName: %Inh
testValue: 2

Next compound, %Inh to be filled in.
query: Looking for the measured %Inh of "Cc1ccc(C)c(NC(=O)NCCNc2ccnc(Nc3ccc(F)cc3)n2)c1" , can you help?
result: 0

---

Tested on: MAK
Conditions: concentration: 1 μM, replicates: in singlicate; n = 1
What %Inh was measured for each of the following?
Answers are plain numbers, in %.

compound: Cn1ccc2ncnc(Oc3ccc(NC(=O)Nc4cccnc4)c(Cl)c3)c21
target: MAK
unitsOfMeasure: %
testValue: 0

// each compound listed below needs its %Inh
1. CCn1c(-c2ccncc2)nc2cnccc21 [SB-735216]
2. CC(C)(C)c1ccc(-n2cnc3c(N)ncnc32)cc1 [SKF-97263]

result:
12
8

Please go through the list and note %Inh for each compound.
1. O=C(c1ccc(-c2cc(-c3c[nH]nc3-c3ccccn3)ccn2)cc1)N1CCCC1 [GW792479]
2. CS(=O)(=O)CCNCc1ccc(-c2ccc3ncnc(Nc4ccc(OCc5ccccc5)c(Cl)c4)c3c2)o1.Cl [GW574783]

result:
0
12

---

Provide the reported %Inh of each item.
System: CAMK2A
Details: concentration: 1 μM, replicates: in singlicate; n = 1
Numbers only, in %.

Worked examples follow.
smilesRecord: Nc1nc(-c2ccccn2)c(-c2ccnc3ccccc23)s1
target: CAMK2A
endpointName: %Inh
testValue: 1
--
smilesRecord: CCc1nc(-c2cccc(N(C)S(=O)(=O)c3ccccc3)c2)c(-c2ccnc(Nc3ccc(N4CCN(C(C)=O)CC4)nc3)n2)s1
target: CAMK2A
endpointName: %Inh
testValue: 0
--
smilesRecord: CSc1nn2c(=O)cc(N3CCOCC3)nc2n1Cc1cccc(Cl)c1Cl
target: CAMK2A
endpointName: %Inh
testValue: 0
--
smilesRecord: COC(=O)c1c(-c2ccccc2)c2cc(Cl)ccc2c(=O)n1Cc1ccc(S(C)(=O)=O)cc1
target: CAMK2A
endpointName: %Inh
testValue: 0
--
smilesRecord: CN1CCC(n2cnc(-c3ccc(F)cc3)c2-c2ccnc(NC3CCNCC3)n2)CC1
target: CAMK2A
endpointName: %Inh
testValue: 0
--
smilesRecord: CSc1ccc(NC2=C(c3ccccc3Cl)C(=O)NC2=O)cc1
target: CAMK2A
endpointName: %Inh
testValue: 18
--
smilesRecord: Oc1ccc2ncnc(Nc3ccc(OCc4ccccc4)cc3)c2c1
target: CAMK2A
endpointName: %Inh
testValue: 0
--
smilesRecord: O=c1cc(N2CCOCC2)nc2n(Cc3cccc(Cl)c3)ccn12
target: CAMK2A
endpointName: %Inh
testValue: 0

Kindly consider the entry below.
query: What measured %Inh goes with "CCn1c(-c2ccncc2)nc2cnccc21" ?
result: 0

---

Test system: FLT3
Settings: concentration: 1 μM, replicates: in singlicate; n = 1
Could you please report measured %Inh for the items listed next?
One number for each entry, in %.

Some solved cases for reference:
smilesRecord: Nc1n[nH]c2nnc(-c3ccccc3)cc12
unitsOfMeasure: %
%Inh: 0
--
smilesRecord: Clc1ccc(-c2cc(-c3c[nH]nc3-c3ccccn3)ccn2)cc1
unitsOfMeasure: %
%Inh: 0
--
smilesRecord: Nc1nc(-c2cccnc2)c(-c2ccnc3ccccc23)s1
unitsOfMeasure: %
%Inh: 16
--
smilesRecord: COc1ccc(NC(=O)c2ccc(-c3cc(-c4nnc(C)o4)ccc3C)cc2)cc1
unitsOfMeasure: %
%Inh: 0
--
smilesRecord: Cl.c1ccc(Cn2ncc3cc(Nc4ncnc5ccccc45)ccc32)cc1
unitsOfMeasure: %
%Inh: 0

Hi! Can you tell me %Inh for each of these compounds?
1. Oc1ccc2ncnc(Nc3ccc(OCc4ccccc4)cc3)c2c1
2. Fc1cccc(COc2ccc(Nc3ncnc4sc(-c5ccc[nH]5)cc34)cc2Cl)c1
3. Fc1cccc(COc2ccc(Nc3ncnc4nn5ccccc5c34)cc2Cl)c1

result:
1: 60; 2: 0; 3: 0

// input: 8 compounds below; output: %Inh for each
1. CNc1nccc(-c2c(-c3ccc(F)cc3)ncn2CCCN2CCOCC2)n1
2. Fc1ccc(-c2ncn(CCCNCc3ccccc3)c2-c2ccncc2)cc1
3. Cc1ccc(NC(=O)c2cccc(C#N)c2)cc1-c1ccc(C(=O)Nc2ccncc2)cc1
4. Nc1nc(-c2ccc3c(N)n[nH]c3c2)cc(N2CCCCC2)n1
5. O=C(NCCCN1CCCC1=O)c1cnc(NCc2cc(Cl)ccc2Cl)nc1NC1CCNCC1
6. O=C(CCO)NCCn1ccc2ncnc(Nc3ccc(Oc4cccc(C(F)(F)F)c4)c(Cl)c3)c21
7. CN1CCC(n2cnc(-c3ccc(F)cc3)c2-c2ccnc(NC3CCNCC3)n2)CC1
8. CC(C)N1CCC(n2cnc(-c3ccc(F)cc3)c2-c2ccnc(N)n2)CC1

result:
1. 15
2. 0
3. 0
4. 0
5. 0
6. 0
7. 27
8. 0

// each compound listed below needs its %Inh
1. c1ccc(-c2ccc3c(-c4ccnc(Nc5ccc6c(c5)OCCO6)n4)cnn3n2)cc1
2. CCn1c(-c2ccncc2)nc2cnccc21
3. FC(F)(F)c1cc(Nc2nccc(-c3c(-c4ccc(Cl)cc4)nn4ncccc34)n2)ccc1Cl

result:
[36, 15, 0]

---

For each entry below, report its %Inh value.
Tested on: KIT-autoinhibited
Details: concentration: 1 μM, replicates: in singlicate; n = 1
Answers are plain numbers, in %.

Worked examples, 4 compounds total:
smilesRecord: CCc1nc(-c2cccc(N(C)S(=O)(=O)c3ccccc3)c2)c(-c2ccnc(Nc3ccc(N4CCN(C(C)=O)CC4)nc3)n2)s1
target: KIT-autoinhibited
testValue: 8
//
smilesRecord: Nc1nc(-c2ccc3c(N)n[nH]c3c2)cc(N2CCCCC2)n1
target: KIT-autoinhibited
testValue: 0
//
smilesRecord: Fc1ccc(-c2ncn(CCCNCc3ccccc3)c2-c2ccncc2)cc1
target: KIT-autoinhibited
testValue: 4
//
smilesRecord: O=C(NCCCN1CCCC1=O)c1cnc(NCc2cc(Cl)ccc2Cl)nc1NC1CCNCC1
target: KIT-autoinhibited
testValue: 0

Below are some compounds; for each one, tell me its %Inh.
1. CCc1nc(-c2cccc(C)c2)c(-c2ccnc(NC(=O)c3ccccc3)c2)s1
2. Nc1nc(-c2ccc3c(N)n[nH]c3c2)cc(N2CCC[C@@H](C(=O)Nc3ccccc3)C2)n1.O=C(O)C(F)(F)F.O=C(O)C(F)(F)F
3. FC(F)(F)c1cc(Nc2nccc(-c3c(-c4ccc(Cl)cc4)nn4ncccc34)n2)ccc1Cl
4. Cn1ccc2ncnc(Nc3ccc(Oc4cccc(Cl)c4)c(Cl)c3)c21
5. Cc1cc(N2CCC(NS(=O)(=O)c3ccc(F)cc3)CC2)nc(Nc2cccc(C#N)c2)n1.O=C(O)C(F)(F)F

result:
1: 6; 2: 4; 3: 1; 4: 0; 5: 0

Hi, could you look up %Inh for each item in my list?
1. Fc1cccc(COc2ccc(Nc3ncnc4sc(-c5ccc[nH]5)cc34)cc2Cl)c1
2. Oc1ccc2ncnc(Nc3ccc(OCc4ccccc4)cc3)c2c1
3. CN1c2ccc(-c3ccc(C(=O)NCCO)cc3)cc2-c2[nH]ncc2S1(=O)=O
4. CNc1nccc(-c2c(-c3ccc(F)cc3)ncn2C2CCN(C)CC2)n1
5. Cc1ccc(NC(=O)c2cccc(C#N)c2)cc1-c1ccc(C(=O)Nc2ccncc2)cc1
6. Nc1n[nH]c2nnc(-c3ccccc3)cc12

result:
1. 0
2. 0
3. 17
4. 0
5. 13
6. 0

Could you tell me %Inh for each of these compounds? They are listed below.
1. CSc1ccc(NC2=C(c3ccccc3Cl)C(=O)NC2=O)cc1
2. CSc1nn2c(=O)cc(N3CCOCC3)nc2n1Cc1cccc(Cl)c1Cl
3. Cl.Fc1ccccc1COc1ccc(Nc2ncnc3ccc(-c4nnc(C(F)(F)F)o4)cc23)cc1Cl

result:
[0, 0, 0]

---

Tested on: TGFBR2
Settings: concentration: 1 μM, replicates: in singlicate; n = 1
endpointName: %Inh (%)
One number for each entry, in %.

smilesRecord: COc1ccc(-c2nc3n(c2-c2ccncc2)CCC3)cc1
endpointName: %Inh
unitsOfMeasure: %
testValue: 0

Okay, here is my list. What is %Inh for each of these?
1. Cc1ccc(C)c(NC(=O)NCCNc2ccnc(Nc3ccc(F)cc3)n2)c1
2. NC(=O)c1sc(-n2cnc3ccccc32)cc1OCc1ccccc1F
3. Cl.Cn1ccc(-c2cccc(Nc3ccnc4cc(-c5nccs5)ccc34)c2)n1
4. Cn1ccc2ncnc(Nc3ccc(Oc4cccc(Cl)c4)c(Cl)c3)c21
5. Cn1ccc2ncnc(Oc3ccc(NC(=O)Nc4cccnc4)c(Cl)c3)c21
6. Cc1cc(N2CCC(NS(=O)(=O)c3ccc(F)cc3)CC2)nc(Nc2cccc(C#N)c2)n1.O=C(O)C(F)(F)F

result:
1. 0
2. 0
3. 0
4. 0
5. 0
6. 11

The following molecules each have a reported value; give each one's %Inh.
1. Clc1ccc(-c2cc(-c3c[nH]nc3-c3ccccn3)ccn2)cc1
2. CCc1nc(-c2cccc(N(C)S(=O)(=O)c3ccccc3)c2)c(-c2ccnc(Nc3ccc(N4CCN(C(C)=O)CC4)nc3)n2)s1
3. CSc1nn2c(=O)cc(N3CCOCC3)nc2n1Cc1cccc(Cl)c1Cl
4. Cc1ccc(NC(=O)c2cccc(C#N)c2)cc1-c1ccc(C(=O)Nc2ccncc2)cc1
5. CC(C)N1CCC(n2cnc(-c3ccc(F)cc3)c2-c2ccnc(N)n2)CC1
6. Oc1ccc2ncnc(Nc3ccc(OCc4ccccc4)cc3)c2c1
7. N#Cc1ccc(Oc2ccc(Nc3ncnc4cc[nH]c34)cc2Cl)cc1

result:
1: 85; 2: 0; 3: 0; 4: 0; 5: 0; 6: 0; 7: 5
